Assay: total protein half-life in vivo (active degradation + dilution); higher = more stable protein
Settings: wild type E. coli NCM3722; growth: P-lim chemostat; doubling time 6 h
OBSERVED_PROPERTY: total protein half-life in vivo (h)
Numbers only; they are read as h.

Some entries whose results are on file:
MKITLLVTLLFGLVFLTTVGAAERTLTPQQQRMTSCNQQATAQALKGDARKTYMSDCLKNSKSAPGEKSLTPQQQKMRECNNQATQQSLKGDDRNKFMSACLKKAA [P0AFM4] :: 5.5
MRMNVFEMEGFLRGKCVPRDLKVNETNAEYLVRKFDALEAKCAALENKIIPVSAELPPANESVLLFDANGEGWLIGWRSLWYTWGQKETGEWQWTFQVGDLENVNITHWAVMPKAPEAGA :: 3.02
MADVHDKATRSKNMRAIATRDTAIEKRLASLLTGQGLAFRVQDASLPGRPDFVVDEYRCVIFTHGCFWHHHHCYLFKVPATRTEFWLEKIGKNVERDRRDISRLQELGWRVLIVWECALRGREKLTDEALTERLEEWICGEGASAQIDTQGIHLLA :: 3.9

`MFKRRYVTLLPLFVLLAACSSKPKPTETDTTTGTPSGGFLLEPQHNVMQMGGDFANNPNAQQFIDKMVNKHGFDRQQLQEILSQAKRLDSVLRLMDNQAPTTSVKPPSGPNGAWLRYRKKFITPDNVQNGVVFWNQYEDALNRAWQVYGVPPEIIVGIIGVETRWGRVMGKTRILDALATLSFNYPRRAEYFSGELETFLLMARDEQDDPLNLKGSFAGAMGYGQFMPSSYKQYAVDFSGDGHINLWDPVDAIGSVANYFKAHGWVKGDQVAVMANGQAPGLPNGFKTKYSISQLAAAGLTPQQPLGNHQQASLLRLDVGTGYQYWYGLPNFYTITRYNHSTHYAMAVWQLGQAVALARVQ` has a reported total protein half-life in vivo of 5.1

MAEVTQLKRYDARPINWGKWFLIGIGMLVSAFILLVPMIYIFVQAFSKGLMPVLQNLADPDMLHAIWLTVMIALIAVPVNLVFGILLAWLVTRFNFPGRQLLLTLLDIPFAVSPVVAGLVYLLFYGSNGPLGGWLDEHNLQIMFSWPGMVLVTIFVTCPFVVRELVPVMLSQGSQEDEAAILLGASGWQMFRRVTLPNIRWALLYGVVLTNARAIGEFGAVSVVSGSIRGETLSLPLQIELLEQDYNTVGSFTAAALLTLMAIITLFLKSMLQWRLENQEKRAQQEEHHEH [P0AEB0] has a reported total protein half-life in vivo of 4.26

MARTKLKFRLHRAVIVLFCLALLVALMQGASWFSQNHQRQRNPQLEELARTLARQVTLNVAPLMRTDSPDEKRIQAILDQLTDESRILDAGVYDEQGDLIARSGESVEVRDRLALDGKKAGGYFNQQIVEPIAGKNGPLGYLRLTLDTHTLATEAQQVDNTTNILRLMLLLSLAIGVVLTRTLLQGKRTRWQQSPFLLTASKPVPEEEESEKKE [P0AGC7] has a reported total protein half-life in vivo of 5.23

MAGINLNKKLWRIPQQGMVRGVCAGIANYFDVPVKLVRILVVLSIFFGLALFTLVAYIILSFALDPMPDNMAFGEQLPSSSELLDEVDRELAASETRLREMERYVTSDTFTLRSRFRQL [P0AFN2] has a reported total protein half-life in vivo of 7.55
